Hello, the source for this data is ChEMBL document CHEMBL1201862, in case you need it.

compounds and their reported EC50
# assayedTarget: Insulin-degrading enzyme (Homo sapiens, UniProt P14735)
# Sequence (P14735 whole entry): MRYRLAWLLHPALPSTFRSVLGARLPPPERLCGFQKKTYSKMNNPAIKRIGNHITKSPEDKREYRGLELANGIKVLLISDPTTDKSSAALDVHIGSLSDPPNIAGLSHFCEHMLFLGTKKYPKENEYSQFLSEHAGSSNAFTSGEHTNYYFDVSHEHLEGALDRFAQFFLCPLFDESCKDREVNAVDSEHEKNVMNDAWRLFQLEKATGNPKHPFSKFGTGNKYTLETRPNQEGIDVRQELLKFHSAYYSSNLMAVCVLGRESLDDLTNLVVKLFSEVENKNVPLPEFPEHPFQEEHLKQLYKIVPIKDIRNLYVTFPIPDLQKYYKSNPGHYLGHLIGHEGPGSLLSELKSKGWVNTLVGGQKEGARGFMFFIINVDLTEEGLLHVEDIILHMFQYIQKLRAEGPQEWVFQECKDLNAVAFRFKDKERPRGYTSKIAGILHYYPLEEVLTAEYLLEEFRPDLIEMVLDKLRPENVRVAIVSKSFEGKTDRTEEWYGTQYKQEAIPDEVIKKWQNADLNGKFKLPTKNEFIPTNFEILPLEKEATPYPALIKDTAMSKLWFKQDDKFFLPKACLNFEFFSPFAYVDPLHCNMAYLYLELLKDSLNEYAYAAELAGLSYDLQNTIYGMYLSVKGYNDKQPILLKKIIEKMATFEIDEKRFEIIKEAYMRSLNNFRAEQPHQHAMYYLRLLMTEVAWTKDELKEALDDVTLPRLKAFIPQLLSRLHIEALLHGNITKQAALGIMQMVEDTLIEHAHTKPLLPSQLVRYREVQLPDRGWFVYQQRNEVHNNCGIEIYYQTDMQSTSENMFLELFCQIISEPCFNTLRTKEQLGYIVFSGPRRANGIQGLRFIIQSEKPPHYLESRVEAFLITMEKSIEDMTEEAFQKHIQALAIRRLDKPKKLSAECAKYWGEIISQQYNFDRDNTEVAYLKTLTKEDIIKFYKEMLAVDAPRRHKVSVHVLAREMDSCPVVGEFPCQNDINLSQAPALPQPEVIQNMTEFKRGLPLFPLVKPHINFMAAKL
# protocolSummary: recombinant IDE activation, cell-free – biochemical, fluorescence polarization, counter-screen for IDE activator project, dose response (AID 588681)
The source made the active and inactive calls.

> print(dat)
                                   compound                             assayedtarget  endpoint   recordedmeasurement
1              O=C(O)c1ccccc1N=Nc1ccc(O)cc1  Insulin-degrading enzyme (Homo sapiens, UniProt P14735)      EC50    26.9 µM (inactive)
2  OC(CNC1CCCCC1)C(F)(F)F (centres undefined)  Insulin-degrading enzyme (Homo sapiens, UniProt P14735)      EC50  > 54.7 µM (inactive)
3  CCCCCCCCCCOC(=O)C[n+]1c(COc2ccc(C)cc2)n(C)c2ccccc21  Insulin-degrading enzyme (Homo sapiens, UniProt P14735)      EC50    16.9 µM (inactive)

Query: Quick check: EC50 on Insulin-degrading enzyme (Homo sapiens, UniProt P14735), item `CCN(c1ccccc1)S(=O)(=O)c1ccc(N2CCN(c3ccc(OC)cc3)CC2)nc1` ?
Reply: > 54.7 µM (inactive)

---

compounds and their reported EC50
# assayedTarget: Luciferin 4-monooxygenase (Photinus pyralis)
# Sequence (P08659 whole entry): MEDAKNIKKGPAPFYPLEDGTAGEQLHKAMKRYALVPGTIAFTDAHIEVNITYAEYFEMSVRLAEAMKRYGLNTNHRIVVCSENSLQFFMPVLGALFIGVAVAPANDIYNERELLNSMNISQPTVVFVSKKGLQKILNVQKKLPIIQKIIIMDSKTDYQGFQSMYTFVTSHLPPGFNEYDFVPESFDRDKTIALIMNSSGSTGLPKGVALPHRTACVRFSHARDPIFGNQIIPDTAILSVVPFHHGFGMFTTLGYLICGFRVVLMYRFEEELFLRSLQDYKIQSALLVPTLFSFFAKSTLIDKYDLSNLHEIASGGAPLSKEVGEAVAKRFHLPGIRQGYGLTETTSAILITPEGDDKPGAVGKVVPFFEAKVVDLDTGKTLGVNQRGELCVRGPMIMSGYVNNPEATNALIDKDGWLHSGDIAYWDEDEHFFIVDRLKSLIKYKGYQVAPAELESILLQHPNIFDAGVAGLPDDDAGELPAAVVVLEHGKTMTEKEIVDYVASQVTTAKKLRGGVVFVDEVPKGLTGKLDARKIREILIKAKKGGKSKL
# protocolSummary: inhibition of purified Photinus pyralis luciferase – biochemical, luminescence, dose response (AID 1891)
Calls of active or inactive are those of the source.

> print(dat)
                                   compound    recordedmeasurement
1          CCC(=O)NCCc1nc2ccccc2n1Cc1ccccc1  > 112 µM (not active)
2                 Nc1cccc(-c2nc3ccccc3s2)c1       3.81 µM (active)
3  O=C(CCNC(=O)C1CCN(S(=O)(=O)c2ccc(F)cc2)CC1)NCc1ccc(Cl)cc1  > 112 µM (not active)

Query: I'd like to know its EC50. The compound in question is C=CCN(C(=O)CCC(=O)O)C1CC(=O)N(c2ccc(OC)cc2)C1=O (configuration not stated)
Reply: > 112 µM (not active)

Query: I'd like to know its EC50. The compound in question is `COc1cccc(-n2c(N)c(C(=O)Nc3c(C)n(C)n(-c4ccccc4)c3=O)c3nc4ccccc4nc32)c1`
Reply: > 112 µM (not active)

Query: I'd like to know its EC50. The compound in question is `Cc1ccccc1-n1c(=O)cc(N2CCN(C(=O)c3ccco3)CC2)[nH]c1=O`
Reply: > 112 µM (not active)

Query: I'd like to know its EC50. The compound in question is `O=C(NCCc1ccccn1)C(F)(F)C(F)(F)C(F)(F)C(F)(F)C(F)(F)C(F)F`
Reply: > 112 µM (not active)

Query: I'd like to know its EC50. The compound in question is `COCCn1c(C)cc(C2=NN=C(NC3CC3)SC2)c1C`
Reply: 7.61 µM (active)

---

# protocolSummary: fluconazole-exposed Candida albicans growth modulators – fluorescence, retest, confirmation (AID 2467)
# Format: functional, cell-based
Active and inactive are the calls of the source.
endpoint: EC50

> print(dat)
                             moleculesmiles   recordedmeasurement
1  Cc1nc(NS(=O)(=O)c2ccc(Br)cc2)c2c3c(sc2n1)CCC3      1.93 µM (active)
2      CC/N=c1\scc(C)n1/N=C/c1ccc(O)c(O)c1O  > 38 µM (not active)
3  CCOC(=O)COc1ccc(S(=O)(=O)N2CCN(c3ccccc3F)CC2)cc1  > 38 µM (not active)

Please find the next molecule below.
Query: I'd like to know its EC50. The molecule in question is `CC(C)(C)c1cc(C(=O)NNc2ccc(OC(F)(F)F)cc2)n(Cc2ccccc2)n1`
Reply: 3.05 µM (active)

---

# assayedTarget: Carboxy-terminal domain RNA polymerase II polypeptide A small phosphatase 1 (Homo sapiens, UniProt Q9GZU7)
# Sequence (Q9GZU7 whole entry): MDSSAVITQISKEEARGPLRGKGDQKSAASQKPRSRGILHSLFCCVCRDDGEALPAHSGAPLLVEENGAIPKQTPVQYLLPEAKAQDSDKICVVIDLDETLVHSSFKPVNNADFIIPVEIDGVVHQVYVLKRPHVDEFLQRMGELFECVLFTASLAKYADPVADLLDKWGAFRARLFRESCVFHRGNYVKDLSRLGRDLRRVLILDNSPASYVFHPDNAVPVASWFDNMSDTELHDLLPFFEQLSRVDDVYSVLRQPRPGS
# protocolSummary: CTDSP1 inhibitors, concentration-response, biochemical, absorbance readout, ultra-high-throughput screen actives (AID 540297)
# Assay type: functional
Active and inactive are the calls of the source.
compounds and their reported IC50

> print(dat)
                                   compound  recordedmeasurement
1  Cc1cccc(NC(=O)CN2C(=O)S/C(=C\c3ccc(O)c([N+](=O)[O-])c3)C2=O)c1     3.43 µM (active)
2  CCOc1cccc(=O)c2c(C)n(-c3ccc(C(=O)O)cc3)c(C)c12     4.54 µM (active)
3  O=c1oc2c(-c3ccc([N+](=O)[O-])cc3)cc(O)cc2s1     6.91 µM (active)

Query: I'd like to know its IC50. The compound in question is C=CC[N+]1(C)CC[C@]23c4c5ccc(O)c4O[C@H]2C(=O)CC[C@@]3(O)[C@H]1C5 (stereo partly drawn) [NALOXONE METHIODIDE]
Reply: 9.73 µM (active)

Query: I'd like to know its IC50. The compound in question is `O=C(CCc1ccccc1)NNC(=O)c1ccc(NC(=O)c2ccccc2)cc1`
Reply: 6.27 µM (active)

Query: I'd like to know its IC50. The compound in question is `COc1ccccc1NC(=O)Cn1c(O)c(N=NC(=O)c2ccccc2O)c2ccccc21`
Reply: 2.74 µM (active)

Query: I'd like to know its IC50. The compound in question is O=C(Nc1nnc(SCc2c(Cl)cccc2Cl)s1)C1CC(=O)N(c2ccc3c(c2)OCCO3)C1 (stereo not drawn)
Reply: 4.6 µM (active)

Query: I'd like to know its IC50. The compound in question is `Cc1ccc(NC(=O)CN(C)C(=O)c2cccc(-n3cccc3)c2)cc1`
Reply: 5.68 µM (active)

Query: I'd like to know its IC50. The compound in question is `O=C(O)c1cccc(-n2cccc2/C=C2\SC(=O)N(Cc3ccccc3F)C2=O)c1`
Reply: 4.62 µM (active)

Query: I'd like to know its IC50. The compound in question is `O=C(NNC(=O)c1cc2cc3ccccc3nc2s1)c1cccc(Cl)c1`
Reply: 1.9 µM (active)

Query: I'd like to know its IC50. The compound in question is `C[N+]1(CC(=O)OCCCc2ccccc2)CCOCC1`
Reply: 6.39 µM (active)

Query: I'd like to know its IC50. The compound in question is `CC(=O)N1CCOc2ccc(S(=O)(=O)NCc3ccc(F)cc3)cc21`
Reply: 9.32 µM (active)

Query: I'd like to know its IC50. The compound in question is `CC(=O)c1ccc(NC(=O)CCS(=O)(=O)c2ccc3c(c2)n(C)c(=O)c(=O)n3C)cc1`
Reply: > 80 µM (inactive)

---

# System: Streptococcus sp. 'group A'
# protocolSummary: Streptococcus pyogenes SK(-)GAS viability under kanamycin – luminescence, BacTiterGlo, confirmation, counter-screen for streptokinase expression inhibitor project, dose response (AID 1900)
# Assay type: functional, organism-based
The source made the active and inactive calls.
molecules and their reported EC50

Illustrative cases are given below, each with its answer.
> print(dat)
                                   molecule  endpoint  recordedmeasurement
1  COc1ccc(Cc2nnc(S)n2NC(=O)Nc2ccc(Cl)c(Cl)c2)cc1      EC50     3.39 µM (active)
2  Cc1nn(-c2ccccc2)c2c1C(c1ccc(O)c(O)c1)N1C(=N2)C(Nc2ccccc2)=Nc2ccccc21 (stereo unspecified)      EC50    0.772 µM (active)
3    COc1ccc(C(=O)Nc2nnc(-c3ccccc3)o2)cc1OC      EC50     6.46 µM (active)

Query: I'd like to know its EC50. The molecule in question is `O=C(NNC(=S)NC(=O)c1ccccc1)c1ccc(O)cc1`
Reply: 4.64 µM (active)

Query: I'd like to know its EC50. The molecule in question is `Cc1ccc(/C=C/C(=O)NC(=S)Nc2ccc(S(=O)(=O)Nc3cc(C)on3)cc2)cc1`
Reply: 9.56 µM (active)

Query: I'd like to know its EC50. The molecule in question is `CCN(CC)c1ccc(/C=N/NC(=O)CCC(=O)NCc2ccccc2)c(O)c1`
Reply: 3.22 µM (active)
